test system: M14 melanoma; assay: NCI tumour cell line growth inhibition, 48 h
Quantity: TGI

These solved cases illustrate the format of a correct answer.
compound=O=C1NC(=NCCc2cccs2)S/C1=C\c1ccc2ncccc2c1 obs_value="> 25 µM"
compound="C[C@]12CC(c3ccccc3O1)C(C(N)=O)C(=O)N2 (stereo partly specified)" obs_value="> 100 µM"
compound=Cn1cc(NC(=O)c2cc(NC(=O)c3cc(NC=O)cn3C)cn2C)cc1C(=O)NCCC(=N)N obs_value="> 100 µM"
compound=O=c1c(O)c(O)c1=O.[NH2-].[NH2-].[NH2-].[NH2-].[NH2-].[Ru+5] obs_value="> 100 µM"
compound=COc1ccc(/C=C/C(=O)C(C)C)cc1 obs_value="> 100 µM"
compound=COc1c(CC(=O)c2ccccc2)c2ccccc2n1C(C)=O obs_value="> 100 µM"
compound=CC[C@H]1C[C@@H](O)[C@@H]2[C@H](O)[C@H](O)CN2C1 obs_value="> 100 µM"
compound=O=C1/C(=C/c2cccc(O)c2)COc2ccccc21 obs_value="13 µM"

Query :: Report TGI, nothing else, for this compound: `O=[N+]([O-])c1ccc(N=Nc2c(O)ccc3cc(S(=O)(=O)O)cc(S(=O)(=O)O)c23)cc1`
Result :: > 100 µM

Query :: Answer with reported TGI of `O=c1nc2sc3ccc4ccccc4c3n2nc1-c1ccccc1`
Result :: > 100 µM

Query :: State its TGI: `CCCCC/C=C\C=C1\C(=O)C=C[C@@H]1C/C=C\CCCC(=O)O`
Result :: 15.1 µM

Query :: Entry `O=C([O-])c1ccc2c(c1)-c1nc-2nc2[n-]c(nc3nc(nc4[n-]c(n1)c1ccc(C(=O)[O-])cc41)-c1ccc(C(=O)[O-])cc1-3)c1ccc(C(=O)[O-])cc21.[Gd+3].[K+]` needs its TGI filled in; supply it.
Result :: > 100 µM

Query :: // Input: O=P(O)(OP(=O)(O)c1ccccc1)c1ccccc1 (tested in a mixture with another compound) . Output its TGI only.
Result :: > 100 µM

Query :: Specify measured TGI for CCOC(=O)N1C=NC23C(c4ccccc4)C(c4ccccc4)C12C(=O)N(C)C(=O)N3C (stereo unspecified) .
Result :: > 100 µM

###

Entries annotated with measured TGI
test system: UO-31 renal; experiment: NCI tumour cell line growth inhibition, 48 h
Where a SMILES comes first, the peptide text is derived from it. [ ]: non-standard residue; d: D form. The star is where a group is joined. ξ: configuration not given here. Cbz = O=C(OCc1ccccc1)*; ξK = NCCCCC(N)C(=O)O

Below, 8 compounds whose answers are already recorded.
compound="NCCCCC(NC(=O)OCc1ccccc1)C(=O)NCC(N)=O (stereo not given) (Cbz-[ξK]-Gly-NH2)" obs_value="> 100 µM"
compound="CCOC(=O)C(=O)/C=C(\\C)Nc1c(NC2OCC(OC(C)=O)C(OC(C)=O)C2OC(C)=O)nc(SC)[nH]c1=O (stereo not given)" obs_value="> 100 µM"
compound="CC(C)(C)c1[nH]nc2c1C(c1cc3ccccc3[nH]c1=O)Nc1cc(C(=O)Nc3ccc(Cl)cc3)ccc1N2 (stereo not given)" obs_value="> 100 µM"
compound=COc1cc(/C=N/N=C(\N)NO)cc(Cl)c1O obs_value="> 100 µM"
compound="CC1CC(c2ccc(Cl)cc2)=Nc2ccccc2S1 (stereo not given)" obs_value="> 100 µM"
compound=COc1c(Br)cc(Br)c(OC)c1-c1ccc[nH]1 obs_value="> 100 µM"
compound=Cc1cc(S(=O)(=O)Nc2nc(N)nc(N(C)C)n2)c(S)cc1Cl obs_value="> 10 µM"
compound=CN(CCNC(=O)c1[nH]nc2c1Cc1ccccc1-2)CCNC(=O)c1[nH]nc2c1Cc1ccccc1-2 obs_value="34.7 µM"

Query :: In one line, give reported TGI of the entry `C/C(CC(=O)Nc1ccccc1[N+](=O)[O-])=N\NC(N)=O` .
Result :: > 100 µM

Query :: Return reported TGI. Input compound: COc1nc(NC2OC(COC(C)=O)C(OC(C)=O)C(OC(C)=O)C2OC(C)=O)c(N=CC=Nc2c(NC3OC(COC(C)=O)C(OC(C)=O)C(OC(C)=O)C3OC(C)=O)nc(OC)n(C)c2=O)c(=O)n1C (stereo not given)
Result :: > 100 µM

###

system: HS 578T breast; test: NCI tumour cell line growth inhibition, 48 h; in the data active = GI50 below about 0.43 µM; inactive = the rest
Reply using exactly one outcome from 1.0 = active, 0.0 = inactive

Consider the following illustrative entries.
compound=COc1cc2c(cc1O)N=C[C@@H]1C[C@@H](F)CN1C2=O label_class=1.0
compound="COC1C(CO)OC(n2c3ccccc3c3c4c(c5c6ccccc6[nH]c5c32)C(=O)NC4=O)C(OC(=O)C(N)CCCCN)C1O (stereo unspecified)" label_class=1.0
compound=CCCCCCCCCCCCCCCCCCOP(=O)([O-])OC1CC[N+](C)(C)CC1 label_class=0.0
compound=CC(C)(O)c1coc(S(=O)(=O)/N=C(\O)Nc2c3c(cc4c2CCC4)CCC3)c1 label_class=0.0
compound=COC(=O)c1c2c(c[n+]([O-])c1C)C(=O)C=C(NCc1ccccc1)C2=O label_class=1.0
compound=CN(C)c1ccc2nc3ccc(=N)cc-3sc2c1 label_class=0.0

Query :: For `COc1ccc(C2=C(c3cn(C)c4ccccc34)C(=O)NC2=O)cc1` , which call appears in the assay record?
Result :: 0.0

Query :: Hi, sorry to bother you, what did the test record for `CC(C)=CC(=O)OCC(=O)O[C@@H]1C[C@]2(C(C)C)O[C@@]1(C)[C@@H]1CC[C@@H](C)[C@H]1[C@@H]2OC(=O)/C=C/c1ccccc1` ?
Result :: 1.0

Query :: I'd appreciate the recorded outcome for `CCc1c2c(nc3ccc(O)cc13)-c1cc3c(c(=O)n1C2)COC(=O)[C@]3(O)CC` from this test.
Result :: 0.0

Query :: Hello, I am checking results. What call was entered for `Cc1cc(C)c(CNC(=O)c2cc(-c3ccc(CN4CCOCC4)cc3)cc3c2cnn3C2CCCC2)c(=O)[nH]1` ?
Result :: 0.0

Query :: // return assay outcome for CC(C)(C)c1[nH]nc2c1C(c1cc3ccccc3[nH]c1=O)Nc1cc(C(=O)Nc3ccc(Cl)cc3)ccc1N2 (stereo unspecified)
Result :: 0.0

Query :: Please indicate how the test categorized `CC#Cc1nc2ccccc2c(=O)[nH]1` .
Result :: 0.0

Query :: What call does the record list for Nc1nc2c(c3cnccc13)C(c1cccc(Br)c1)Cc1cnccc1-2 (stereo unspecified) ?
Result :: 1.0

Query :: State the result this test recorded for `Ic1ccc2[nH]cc(SSc3c[nH]c4ccc(I)cc34)c2c1` .
Result :: 0.0

Query :: What did this assay record as the result for `CC1(C)CCC(S(=O)(=O)c2ccc3c(c2)/C(=N\O)c2cc(S(=O)(=O)N4CCN(c5ccc(F)cc5O)CC4)ccc2-3)CC1` ?
Result :: 1.0

Query :: Called result for COc1cc(/C=C2\CC3C4CCC5=CC(=O)CC[C@]5(C)C4CC[C@]3(C)C2=O)ccc1OCCCn1ccnc1 (stereo partly specified)
Result :: 0.0

###

test system: U251 CNS; assay: NCI tumour cell line growth inhibition, 48 h
Quantity: TGI

Here is how some compounds turned out for TGI.
compound=COc1nc(-c2cn(S(=O)(=O)c3ccc(C)cc3)c3ccc(Br)cc23)cc(C(F)(F)F)c1C#N quantity=TGI obs_value="35.2 µM"
compound="Cn1nc(-c2cccs2)cc1/N=C(\\N)C(C)(C#N)Cc1ccccc1 (configuration not stated)" quantity=TGI obs_value="52.7 µM"
compound="C=C(C)[C@@H]1CC[C@]2(CNCCO)CC[C@]3(C)[C@H](CC[C@@H]4[C@@]5(C)CCC(N)[C@@](C)(CO)[C@@H]5CC[C@]43C)[C@@H]12 (some centres not stated)" quantity=TGI obs_value="3.16 µM"

Query :: Given the compound CC(=O)OCC1CCC(=C2C(=O)OC(C)(C)OC2=O)N1 (configuration not stated) , write its reported TGI.
Result :: > 100 µM

Query :: Name the recorded TGI of the compound listed here: CC(=O)OC1C[C@@H](C)C2(C[C@H](O)c3ccoc3)C(=O)OC[C@]13C2CCC(O)C31CO1 (some centres not stated)
Result :: > 100 µM

Query :: Return TGI (reported value) for this compound: `C=C(C)[C@@H]1CC[C@]2(COC(C)=O)CC[C@]3(C)[C@H](CC[C@@H]4[C@@]5(C)CC[C@H](OC(C)=O)C(C)(C)[C@@H]5CC[C@]43C)[C@@H]12`
Result :: > 50 µM

###

test system: ACHN renal; assay: NCI tumour cell line growth inhibition, 48 h
Here the recorded TGI is given for each entry.

Field: example entries. Status: answers known.
molecule=CC(=O)Nc1cc(C(=O)Nc2cc(C(=O)Nc3cc(C(=O)Nc4cc(C(=O)Nc5cc(C(=O)NCCC(=O)NCCCN(C)C)n(C)c5)n(C)c4)n(C)c3)n(C)c2)n(C)c1 obs_value="> 100 µM"
molecule=NC(=O)NN=C1C[C@H]2CCCC[C@H]2C1 obs_value="> 100 µM"
molecule=Nc1ncnc2oc(-c3cccs3)nc12 obs_value="> 100 µM"
molecule=O=C1NC(=O)C(C(=O)C(=O)Nc2cccc(C(F)(F)F)c2)C(=O)N1 obs_value="> 100 µM"

Then there is this molecule:
Query :: Quote TGI reported for COc1cc(C2c3cc4c(cc3OC(N3CCCCC3)C2C)OCO4)cc(OC)c1OC (stereo not given) please.
Result :: 28.7 µM
